test: Cytotoxicity against human HUVEC cells assessed as reduction in cell growth incubated for 48 hrs by CCK-8 method; format: toxicity, cell-based
assay-endpoint: IC50 at 48 h (µM)
The reply should be a number in µM, with the unit left off.

# input Would you kindly share the measured IC50 at 48 h for COCc1c(-c2ccc(O)c(OC)c2)oc2c(OC)cc([C@H]3OC[C@@H]4[C@H]3CO[C@@H]4c3ccc(O)c(OC)c3)cc12 ?
# output 32.8

====

test: Inhibition of alpha-glucosidase (unknown origin); parameters: species or system Homo sapiens
assay-endpoint: pIC50
Remember, pIC50 is on a log scale: it is -log10 of the molar concentration.

# annotated cases, reported pIC50 shown
# input Would you kindly share the measured pIC50 for COc1cc([C@@H](O)[C@@H](CO)Oc2c(OC)cc([C@@H]3OC[C@@H]4[C@H]3CO[C@H]4c3cc(OC)c(O)c(OC)c3)cc2OC)ccc1O ?
# output 4.81

# input // repeat for COc1cc([C@@H](O)[C@H](CO)Oc2ccc([C@H]3OC[C@H]4[C@@H]3CO[C@@H]4c3ccc(O)c(OC)c3)cc2OC)ccc1O and report
# output 5.29

# input // repeat for COc1cc(O)cc([C@@H]2c3c(cc(OC)c4c3[C@H](CO)[C@H](c3ccc(O)c(OC)c3)O4)C[C@H](CO)[C@H]2CO)c1 and report
# output 5.29

Further cases:
# input Would you kindly share the measured pIC50 for COc1cc([C@@H](O)[C@@H](CO)Oc2ccc([C@@H]3OC[C@@H]4[C@H]3CO[C@H]4c3ccc(O)c(OC)c3)cc2OC)ccc1O ?
# output 5.52

# input // repeat for COc1cc([C@H]2OC[C@H]3[C@@H]2CO[C@@H]3c2ccc(O[C@H](CO)[C@@H](O)c3ccc(O)c(OC)c3)c(OC)c2)ccc1O and report
# output 5.17

# input // repeat for OC/C=C/c1ccc2c(c1)O[C@H](c1ccc3c(c1)O[C@@H](c1ccc(O)c(O)c1)[C@H](CO)O3)[C@@H](CO)O2 and report
# output 6.21
